Experiment: qHTS for Inducers of the Endoplasmic Reticulum Stress Response (ERSR) in Human Glioma: qHTS; further: % of control where 0% means no effect; nearly all actives have a fitted effect of over 35% in size
Details: U87-MG GRP78 promoter luciferase reporter, 16 h; stronger effect = higher value
In all, about 420,000 compounds went through this assay and about 75 (0.02%) were called active. The sample as a whole holds a higher share of actives than the screen did.
metric: activation

Request: GET /values?readout=activation&item= COc1ccc2c(c1)CCc1cnc(-n3ncc(C(=O)NCc4cccnc4)c3C3CC3)nc1-2
Result: -2.79% (inactive)

Request: Would you kindly share the measured activation for CC(C)N1C[C@@H](NCc2ccccc2O)C[C@H]1C(=O)N1CCN(c2cccc(C(F)(F)F)c2)CC1 ?
Result: -4.06% (inactive)

Request: Look at this compound and give its reported activation. O=C(c1cn(CC2CCCN(Cc3cc4ccccc4s3)C2)nn1)N1CCCC1 (stereo not given)
Result: -4.62% (inactive)

Request: Reported activation, compound COc1ccccc1C(=O)N[C@@H]1c2ccccc2C2(CCN(Cc3nc(C(C)C)cs3)CC2)[C@H]1O : ____
Result: -7.22% (inactive)

Request: For the compound N[C@@H](C(=O)O)c1ccc(P(=O)(O)O)cc1 , what activation is on record?
Result: -4.34% (inactive)

---

Assay: qHTS for Inducers of the Endoplasmic Reticulum Stress Response (ERSR) in Human Glioma: qHTS; further: % of control where 0% means no effect; nearly all actives have a fitted effect of over 35% in size
Settings: U87-MG GRP78 promoter luciferase reporter, 16 h; stronger effect = higher value
About 75 (0.02%) of roughly 420,000 compounds were called active. The full list was thinned out, with actives kept by preference.
metric: activation (%)
Hi! Could you send only the number? It should be in %, unit omitted.

Request: Entry CCCCC(=O)OCC(=O)[C@H]1[C@H](C)C[C@@H]2[C@@H]3C[C@@H](F)C4=CC(=O)C=C[C@]4(C)[C@@]3(F)[C@@H](O)C[C@@]21C : reported activation = ?
Result: -0.711

Request: Can you look up the measured activation of CC(=O)OC[C@H]1O[C@@H](O[C@H]2[C@H](O)[C@@H](OC(=O)c3ccccc3C(=O)O)[C@H](O)O[C@@H]2COC(C)=O)[C@H](O)[C@@H](OC(=O)c2ccccc2C(=O)O)[C@@H]1O for me?
Result: -0.805

Request: Name the reported activation value associated with the molecule COc1cccc([C@H]2Oc3ccc(OC)cc3/C(=N\OCC[C@@H]3C=C[C@H](OC(C)=O)[C@H](COC(C)=O)O3)[C@@H]2O)c1
Result: -2.8

Request: # activation lookup, item CCOc1ccc2nc(N3CCCN(CCCn4cccn4)CC3)nc(C)c2c1
Result: 0.4

Request: Please report the recorded activation for N#Cc1cccc(-c2ccc3ncnc(NCc4cccs4)c3c2)c1 .
Result: -10.9

Request: Sample CC(C)(C)c1ccc(OC2C=CC(C#Cc3ccccc3)OC2CO)cc1 (configuration not stated) — what was its activation?
Result: -2.6

Request: Requested field: activation. Item: C[C@@H]1O[C@@H](OC[C@H]2O[C@@H](Oc3cc(O)c4c(c3)O[C@H](c3ccc(O)c(O)c3)CC4=O)[C@H](O)[C@@H](O)[C@@H]2O)[C@H](O)[C@H](O)[C@H]1O
Result: -3.44

Request: I would be grateful if you could share the reported activation for Cc1ccc2c(C)nc(N3CCCC(C(=O)NC(C)(C)CO)C3)nc2c1 (configuration not stated) .
Result: -2.4

Request: Data request, read-out activation, for C[N+](C)(CCOc1ccccc1)Cc1cccs1 (tested in a mixture with another compound)
Result: -5.19

Request: Need activation of CCC1CN(CCNC(=O)c2cccnc2C)Cc2cc(OC)ccc2O1 (configuration not stated) , thanks.
Result: -0.134

Request: I would be grateful if you could share the reported activation for Fc1ccc(Cl)cc1-c1nc(Nc2ccncc2)c2nccnc2n1 .
Result: -1.14

Request: Which activation is reported for this molecule? CCCC(=O)O[C@]1(C(=O)COC(=O)CC)CC[C@@H]2[C@@H]3CCC4=CC(=O)CC[C@]4(C)[C@H]3[C@@H](O)C[C@@]21C
Result: -2.74
